Target: T1, SWSAP1 (hSWS1-SWSAP1, WT);hSWS1 (Homo sapiens;Homo sapiens, UniProt Q6NVH7;Q19AV6 22-250;1-140, |)
T1 sequence 1: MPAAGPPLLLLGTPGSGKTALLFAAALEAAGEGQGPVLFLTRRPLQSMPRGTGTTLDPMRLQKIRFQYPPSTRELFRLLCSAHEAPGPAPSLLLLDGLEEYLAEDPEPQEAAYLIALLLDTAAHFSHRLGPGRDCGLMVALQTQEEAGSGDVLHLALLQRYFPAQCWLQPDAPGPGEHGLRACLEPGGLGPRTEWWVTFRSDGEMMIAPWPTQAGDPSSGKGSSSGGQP
T1 sequence 2: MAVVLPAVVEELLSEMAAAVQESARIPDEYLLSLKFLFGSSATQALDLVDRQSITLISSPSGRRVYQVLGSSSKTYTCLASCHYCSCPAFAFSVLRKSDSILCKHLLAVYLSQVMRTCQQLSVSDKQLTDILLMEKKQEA
Test: fluorescence polarization; no nucleotide; FPA: 5 nM 6-FAM DNA, 37 C, 2 mM nucleotide where stated (buffer not given in material); EMSA: 0.05 uM 6-FAM DNA, 5%/15% native PAGE; RAD51 filaments: 2 mM ATP
Conditions: protein: recombinant;recombinant; tags: N-terminal 6xHis-TEV, cleaved;none; copies: 1;1; label: 3' 6-FAM on strand 1; fork 1:2, 19 bp duplex, 20 nt arms
attribute-measured: pKd
One number for each entry, as −log10 of the molar value.

What the record says about Fork (dsDNA) DNA 1: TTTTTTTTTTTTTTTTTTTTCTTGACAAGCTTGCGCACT DNA 2: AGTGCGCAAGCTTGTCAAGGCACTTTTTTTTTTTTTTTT : pKd is 5.11
